Values were extracted from patent US20240317847A1.

Target: T1, human IL-11 (human, UniProt P20809 22-199)
T1 sequence: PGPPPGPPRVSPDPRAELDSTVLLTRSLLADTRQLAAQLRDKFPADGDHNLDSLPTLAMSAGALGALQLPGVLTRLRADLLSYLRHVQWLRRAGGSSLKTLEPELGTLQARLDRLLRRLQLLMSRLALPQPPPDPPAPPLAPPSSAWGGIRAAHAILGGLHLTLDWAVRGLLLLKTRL
Experiment: cell-based or functional assay
Quick rule for you: RGA Efficacy (%) at 80% or higher means fulfilled, lower means not fulfilled.

Take a look at these entries with their results.
- binder: "TPP-29397 (antibody, human IgG1, V domains shown) VH: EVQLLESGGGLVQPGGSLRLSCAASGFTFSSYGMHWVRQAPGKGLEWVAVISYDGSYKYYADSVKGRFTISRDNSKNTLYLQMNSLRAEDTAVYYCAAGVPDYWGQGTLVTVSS VL: QSVLTQPPSASGTPGQRVTISCSGSSSNIWSGYDVHWYQQLPGTAPKLLIYSNEERPSGVPDRFSGSKSGTSASLAISGLRSEDEADYYCAAWDSSLYGPVFGGGTKLTVL"
  classification: "not fulfilled"
- binder: "TPP-29383 (antibody, human IgG1, V domains shown) VH: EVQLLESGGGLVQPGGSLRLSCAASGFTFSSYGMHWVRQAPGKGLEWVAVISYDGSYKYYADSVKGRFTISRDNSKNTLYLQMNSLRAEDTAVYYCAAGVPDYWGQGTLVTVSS VL: QSVLTQPPSASGTPGQRVTISCSGSSSNIGSDLDVHWYQQLPGTAPKLLIYSNEERPSGVPDRFSGSKSGTSASLAISGLRSEDEADYYCAAWDPSLYGPVFGGGTKLTVL"
  classification: "fulfilled"
- binder: "TPP-29393 (antibody, human IgG1, V domains shown) VH: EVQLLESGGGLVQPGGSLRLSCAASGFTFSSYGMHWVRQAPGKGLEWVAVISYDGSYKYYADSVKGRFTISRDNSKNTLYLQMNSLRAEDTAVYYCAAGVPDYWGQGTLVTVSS VL: QSVLTQPPSASGTPGQRVTISCSGSSSNIGSDLDVHWYQQLPGTAPKLLIYSNEERPSGVPDRFSGSKSGTSASLAISGLRSEDEADYYCAAWDDSLYGPVFGGGTKLTVL"
  classification: "fulfilled"

For this binder, is measured RGA Efficacy (%) 80% or higher? TPP-29404 (antibody, human IgG1, V domains shown) VH: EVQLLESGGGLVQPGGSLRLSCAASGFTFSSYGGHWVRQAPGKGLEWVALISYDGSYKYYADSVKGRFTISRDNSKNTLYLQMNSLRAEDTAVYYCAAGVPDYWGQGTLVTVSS VL: QSVLTQPPSASGTPGQRVTISCSGSSSNIGSYYDVHWYQQLPGTAPKLLIYSNNERPSGVPDRFSGSKSGTSASLAISGLRSEDEADYYCAAWDSSLSGPVFGGGTKLTVL
not fulfilled

For this binder, is measured RGA Efficacy (%) 80% or higher? TPP-29381 (antibody, human IgG1, V domains shown) VH: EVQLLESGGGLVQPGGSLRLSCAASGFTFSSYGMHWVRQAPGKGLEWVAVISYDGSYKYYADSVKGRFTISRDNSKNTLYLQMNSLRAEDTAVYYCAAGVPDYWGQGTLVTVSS VL: QSVLTQPPSASGTPGQRVTISCSGSSSNIGSDYDVHWYQQLPGTAPKLLIYSNNERPSGVPDRFSGSKSGTSASLAISGLRSEDEADYYCSAWDSSLSGPVFGGGTKLTVL
not fulfilled

For this binder, is measured RGA Efficacy (%) 80% or higher? TPP-29401 (antibody, human IgG1, V domains shown) VH: EVQLLESGGGLVQPGGSLRLSCAASGFTFSSYGGHWVRQAPGKGLEWVAVISYDGSYKYYADSVKGRFTISRDNSKNTLYLQMNSLRAEDTAVYYCAAGVPDYWGQGTLVTVSS VL: QSVLTQPPSASGTPGQRVTISCSGSSSNIGSYYDVHWYQQLPGTAPKLLIYSNEERPSGVPDRFSGSKSGTSASLAISGLRSEDEADYYCAAWDDSLSGPVFGGGTKLTVL
fulfilled

For this binder, is measured RGA Efficacy (%) 80% or higher? TPP-29394 (antibody, human IgG1, V domains shown) VH: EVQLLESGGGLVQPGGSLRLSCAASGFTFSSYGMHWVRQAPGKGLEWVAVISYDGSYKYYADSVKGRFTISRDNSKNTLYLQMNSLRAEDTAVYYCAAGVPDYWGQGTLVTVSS VL: QSVLTQPPSASGTPGQRVTISCSGSSSNIGSDYDVHWYQQLPGTAPKLLIYSNNERPSGVPDRFSGSKSGTSASLAISGLRSEDEADYYCAAWDFSLYGPVFGGGTKLTVL
fulfilled
